biological target: LRRK2 G2019S (Homo sapiens, UniProt Q5S007, G2019S); assay: LRRK2 G2019S Km ATP LanthaScreen assay; format: biochemical; details: read-out: LRRK2 pIC50 (converted)
Sequence (Q5S007 whole entry G2019S): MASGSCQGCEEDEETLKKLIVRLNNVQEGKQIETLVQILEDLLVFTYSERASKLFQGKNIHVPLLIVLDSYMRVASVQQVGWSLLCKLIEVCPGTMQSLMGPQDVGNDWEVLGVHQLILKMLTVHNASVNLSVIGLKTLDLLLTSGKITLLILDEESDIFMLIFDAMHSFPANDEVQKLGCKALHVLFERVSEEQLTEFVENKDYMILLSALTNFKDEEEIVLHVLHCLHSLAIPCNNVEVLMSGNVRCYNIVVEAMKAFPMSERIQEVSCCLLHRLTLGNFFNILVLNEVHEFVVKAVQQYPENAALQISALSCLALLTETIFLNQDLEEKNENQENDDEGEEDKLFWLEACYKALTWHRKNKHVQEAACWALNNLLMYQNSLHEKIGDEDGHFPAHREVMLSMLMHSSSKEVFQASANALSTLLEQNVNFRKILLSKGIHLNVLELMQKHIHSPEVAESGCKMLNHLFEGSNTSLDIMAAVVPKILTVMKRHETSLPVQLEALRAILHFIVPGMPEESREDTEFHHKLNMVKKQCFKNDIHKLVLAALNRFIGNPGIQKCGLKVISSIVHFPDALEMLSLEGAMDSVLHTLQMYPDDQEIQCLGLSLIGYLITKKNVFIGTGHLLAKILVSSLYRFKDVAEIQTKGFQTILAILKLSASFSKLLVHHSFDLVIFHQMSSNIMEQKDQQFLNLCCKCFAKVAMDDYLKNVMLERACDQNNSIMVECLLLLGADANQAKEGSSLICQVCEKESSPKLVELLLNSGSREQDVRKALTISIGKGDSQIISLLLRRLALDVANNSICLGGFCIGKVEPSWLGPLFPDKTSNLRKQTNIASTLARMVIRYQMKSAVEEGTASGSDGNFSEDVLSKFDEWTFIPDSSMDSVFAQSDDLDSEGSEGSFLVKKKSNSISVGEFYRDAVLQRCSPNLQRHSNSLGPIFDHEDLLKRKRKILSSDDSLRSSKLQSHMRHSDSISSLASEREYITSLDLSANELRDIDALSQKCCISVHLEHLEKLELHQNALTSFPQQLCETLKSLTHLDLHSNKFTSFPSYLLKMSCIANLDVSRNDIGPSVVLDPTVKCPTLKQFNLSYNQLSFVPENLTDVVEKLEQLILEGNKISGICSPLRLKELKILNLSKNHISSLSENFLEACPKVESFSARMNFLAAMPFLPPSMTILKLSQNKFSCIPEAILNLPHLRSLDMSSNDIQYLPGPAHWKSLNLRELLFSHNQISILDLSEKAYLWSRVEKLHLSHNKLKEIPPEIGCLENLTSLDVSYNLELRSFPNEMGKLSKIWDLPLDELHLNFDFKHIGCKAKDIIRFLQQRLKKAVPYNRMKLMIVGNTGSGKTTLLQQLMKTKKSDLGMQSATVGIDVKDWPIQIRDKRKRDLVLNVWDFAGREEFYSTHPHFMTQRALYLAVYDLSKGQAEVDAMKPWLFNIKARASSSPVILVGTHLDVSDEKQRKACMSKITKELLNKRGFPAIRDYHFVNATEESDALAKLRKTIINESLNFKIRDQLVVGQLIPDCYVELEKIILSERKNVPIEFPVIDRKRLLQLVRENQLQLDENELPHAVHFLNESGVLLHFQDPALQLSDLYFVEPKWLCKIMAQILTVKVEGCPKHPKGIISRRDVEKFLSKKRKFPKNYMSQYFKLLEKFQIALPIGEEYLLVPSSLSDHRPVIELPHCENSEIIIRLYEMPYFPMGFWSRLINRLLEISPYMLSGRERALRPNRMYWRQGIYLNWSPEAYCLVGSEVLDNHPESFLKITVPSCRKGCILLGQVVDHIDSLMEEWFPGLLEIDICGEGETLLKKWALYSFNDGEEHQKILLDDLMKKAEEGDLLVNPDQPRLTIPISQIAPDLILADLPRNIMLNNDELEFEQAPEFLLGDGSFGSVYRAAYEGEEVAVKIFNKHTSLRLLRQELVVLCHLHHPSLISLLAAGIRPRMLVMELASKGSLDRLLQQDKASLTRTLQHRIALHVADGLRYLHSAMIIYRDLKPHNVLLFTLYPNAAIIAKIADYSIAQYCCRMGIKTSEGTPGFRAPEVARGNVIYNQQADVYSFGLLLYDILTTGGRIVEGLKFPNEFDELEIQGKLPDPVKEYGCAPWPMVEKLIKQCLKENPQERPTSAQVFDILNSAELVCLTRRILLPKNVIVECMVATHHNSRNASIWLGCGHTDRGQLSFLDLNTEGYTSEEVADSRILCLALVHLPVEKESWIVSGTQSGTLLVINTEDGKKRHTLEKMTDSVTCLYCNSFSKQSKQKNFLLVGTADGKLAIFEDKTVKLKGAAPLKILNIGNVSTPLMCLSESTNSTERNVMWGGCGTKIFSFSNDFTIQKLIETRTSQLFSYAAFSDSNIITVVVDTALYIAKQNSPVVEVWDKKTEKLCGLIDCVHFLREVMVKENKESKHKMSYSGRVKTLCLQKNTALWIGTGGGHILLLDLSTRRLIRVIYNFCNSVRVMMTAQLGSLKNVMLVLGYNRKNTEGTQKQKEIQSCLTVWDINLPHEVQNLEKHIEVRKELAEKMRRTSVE
Class field: derived from IC50; ranges low: < 0.3 nM; moderate: ≥ 0.3 nM and < 4 nM; high: ≥ 4 nM

Molecule: CC(C)(O)C1CC1C(=O)Nc1cc2cc(C3(C#N)CC34CC4)ccc2cn1 (centres unmarked)
Group label: low
--
Molecule: Cn1cc(N2CCC(C(=O)Nc3cc4cc(C5(C#N)CC56CC6)ccc4cn3)C2)cn1 (centres unmarked) [Ex-2.76]
Group label: high
--
Molecule: CC1(N2CCC(c3cc4cc(NC(=O)CC5CCOCC5)ncc4cc3Cl)CC2)COCC1O (single isomer, unassigned)
Group label: moderate
--
Molecule: CC1C(C(=O)Nc2cc3cc(C4CCN(C5(C)COCC5F)CC4)c(Cl)cc3cn2)C1c1cnn(C)c1 (centres unmarked)
Group label: low
--
Molecule: Cc1cc2cnc(NC(=O)C3CC34CCOCC4)cc2cc1C1CCN(C2(C)COCC2C)CC1 (single isomer, unassigned) [Ex-15.4]
Group label: low
--
Molecule: O=C(Nc1cc2cc(C3CCC(N4CC(F)(F)C4)CC3)c(Cl)cc2cn1)C1CC1c1ccccn1 (single isomer, unassigned) [Ex-5.5]
Group label: low
--
Molecule: CC1(C)CC(C(=O)Nc2cc3cc(C4CCC(N5CCC(F)C5)CC4)c(Cl)cc3cn2)CCO1 (single isomer, unassigned) [Ex-5.9]
Group label: moderate
--
Molecule: Cn1cc(C2CC2C(=O)Nc2cc3cc(C4CCC(N5CC(F)C5)CC4)c(Cl)cc3cn2)cn1 (single isomer, unassigned) [Ex-5.8]
Group label: high
--
Molecule: CC(C)(O)C1CC1C(=O)Nc1cc2cc(C3CCN(C4(C)COCC4O)CC3)c(Cl)cc2cn1 (single isomer, unassigned) [Ex-4.9]
Group label: low
--
Molecule: Cc1cc2cnc(NC(=O)C3CC3)cc2cc1C1CCN(C2(C)COC2)CC1
Group label: moderate
--
Molecule: O=C(Nc1cc2cc(C3CCN(C4COC4)CC3)c(Cl)cc2cn1)C1CC(OC(F)F)C1 (single isomer, unassigned) [Ex-2.4]
Group label: high
--
Molecule: CC1(N2CCC(c3cc4cc(NC(=O)C5C6CCCOC65)ncc4cc3Cl)CC2)COCC1O (single isomer, unassigned) [Ex-4.12]
Group label: moderate
--
Molecule: Cc1cc2cnc(NC(=O)C3CC34CC4)cc2cc1C1CCN(C2(C)COCC2O)CC1 (single isomer, unassigned)
Group label: low
--
Molecule: CC1(C)CC(C(=O)Nc2cc3cc(C4CCC(N5CCC(F)C5)CC4)c(Cl)cc3cn2)CCO1 (single isomer, unassigned) [Ex-5.15]
Group label: moderate
--
Molecule: C[C@H]1CC(F)(F)CC[C@H]1C(=O)Nc1cc2cc(C3CCN(C4COC4)CC3)c(Cl)cc2cn1
Group label: high
--
Molecule: C[C@@]1(N2CC[C@@H](c3cc4cc(NC(=O)[C@@H]5CC56CC6)ncc4cc3Cl)[C@H](F)C2)COC[C@@H]1O
Group label: low
--
Molecule: CC1(C)CCC(C(=O)Nc2cc3cc(C4CCC(N5CCC(F)C5)CC4)c(Cl)cc3cn2)CO1 (single isomer, unassigned) [Ex-5.18]
Group label: high
--
Molecule: Cn1cc(C2CC2C(=O)Nc2cc3cc(C4CC(N5CC(F)C5)C4)c(Cl)cc3cn2)cn1 (single isomer, unassigned) [Ex-5.26]
Group label: moderate
--
Molecule: N#CC1(c2cc3cc(NC(=O)C4CC4)ncc3cc2F)CC12CC2 (single isomer, unassigned) [Ex-18.10]
Group label: high
